Tested on: receptor labeled by the radioiodinated analogue of 1 (4, [125I]-YLFQPQRF-NH2); neuropeptide FF receptor
Assay: Competitive radioligand binding against 4 ([125I]Y8F-amide)
Conditions: mixture-based positional scanning; difference from averaged radioligand displacement of whole library (0); about 80 a.u. = 10-fold change in Ki
Text: Additionally, three-dimensional (3-D) molecular models of the known smaller-size neuropeptide FF antagonists 3 and 3a were constructed and their low-energy conformations were obtained in the AMBER force-field [Weiner, et al., J. Comput. Chem. 1986, 7, […].] by molecular dynamics calculations involving simulated annealing. A semi-empirical quantum chemical method with the PM3 parameterization [Stewart, J. Comput. Chem. 1989, 10, 209-220.] was used for the final geometry optimization. […]
Peptide text beside a SMILES is read from it. * marks the point of attachment. Dansyl = CN(C)c1cccc2c(S(=O)(=O)*)cccc12
reported.property: Relative Binding Index (RBI) (a.u.)

>  <molecule>
CC(C)C[C@H](NS(=O)(=O)c1cccc2c(N(C)C)cccc12)C(=O)N[C@H](C(=O)N[C@@H](CCCNC(=N)N)C(N)=O)[C@@H](C)O [Dansyl-LTR-amide] (Dansyl-Leu-Thr-Arg-NH2)

>  <reported.property>
Relative Binding Index (RBI)

>  <result>
−26

$$$$

A: C[C@@H](O)[C@H](NC(=O)[C@H](Cc1ccccc1)NS(=O)(=O)c1cccc2c(N(C)C)cccc12)C(=O)N[C@@H](CCCNC(=N)N)C(N)=O [Dansyl-FTR-amide] (Dansyl-Phe-Thr-Arg-NH2)
B: CN(C)c1cccc2c(S(=O)(=O)N[C@@H](Cc3c[nH]c4ccccc34)C(=O)N[C@@H](CC(=O)O)C(=O)N[C@@H](CCCNC(=N)N)C(N)=O)cccc12 [Dansyl-WDR-amide] (Dansyl-Trp-Asp-Arg-NH2)
Task item: Sort A and B by Relative Binding Index (RBI) descending and give the first. Record your answer as the label of the chosen record.
Reply: A

====

tested on: receptor labeled by the radioiodinated analogue of 1 (4, [125I]-YLFQPQRF-NH2); neuropeptide FF receptor; assay: Competitive radioligand binding against 4 ([125I]Y8F-amide); conditions: mixture-based positional scanning; difference from averaged radioligand displacement of whole library (0); about 80 a.u. = 10-fold change in Ki
Peptide text beside a SMILES is read from it. * marks the point of attachment. Dansyl = CN(C)c1cccc2c(S(=O)(=O)*)cccc12
reported.property: Relative Binding Index (RBI) (a.u.)

>  <molecule>
CN(C)c1cccc2c(S(=O)(=O)N[C@@H](CCCCN)C(=O)N[C@@H](Cc3c[nH]cn3)C(=O)N[C@@H](CCCNC(=N)N)C(N)=O)cccc12 [Dansyl-KHR-amide] (Dansyl-Lys-His-Arg-NH2)

>  <unit.string>
a.u.

>  <Relative Binding Index (RBI)>
19

$$$$
>  <molecule>
CC(C)[C@H](NS(=O)(=O)c1cccc2c(N(C)C)cccc12)C(=O)N1CCC[C@H]1C(=O)N[C@@H](CCCNC(=N)N)C(N)=O [Dansyl-VPR-amide] (Dansyl-Val-Pro-Arg-NH2)

>  <unit.string>
a.u.

>  <Relative Binding Index (RBI)>
−1

$$$$
>  <molecule>
CN(C)c1cccc2c(S(=O)(=O)N[C@@H](CC(N)=O)C(=O)N3CCC[C@H]3C(=O)N[C@@H](CCCNC(=N)N)C(N)=O)cccc12 [Dansyl-NPR-amide] (Dansyl-Asn-Pro-Arg-NH2)

>  <unit.string>
a.u.

>  <Relative Binding Index (RBI)>
16

$$$$
>  <molecule>
CN(C)c1cccc2c(S(=O)(=O)N[C@@H](CCC(N)=O)C(=O)N[C@@H](Cc3c[nH]c4ccccc34)C(=O)N[C@@H](CCCNC(=N)N)C(N)=O)cccc12 [Dansyl-QWR-amide] (Dansyl-Gln-Trp-Arg-NH2)

>  <unit.string>
a.u.

>  <Relative Binding Index (RBI)>
30

$$$$
>  <molecule>
CN(C)c1cccc2c(S(=O)(=O)N[C@@H](CC(=O)O)C(=O)N[C@@H](Cc3c[nH]c4ccccc34)C(=O)N[C@@H](CCCNC(=N)N)C(N)=O)cccc12 [Dansyl-DWR-amide] (Dansyl-Asp-Trp-Arg-NH2)

>  <unit.string>
a.u.

>  <Relative Binding Index (RBI)>
3

$$$$

I: CC(O)C(NS(=O)(=O)c1cccc2c(N(C)C)cccc12)C(=O)NC(Cc1ccccc1)C(=O)NC(CCCNC(=N)N)C(N)=O (stereo not drawn) [Dansyl-TFR-amide] (Dansyl-Thr-Phe-Arg-NH2; configuration not given here)
II: CN(C)c1cccc2c(S(=O)(=O)N[C@@H](Cc3c[nH]c4ccccc34)C(=O)N[C@@H](CO)C(=O)N[C@@H](CCCNC(=N)N)C(N)=O)cccc12 [Dansyl-WSR-amide] (Dansyl-Trp-Ser-Arg-NH2)
Task item: // which entry has the larger Relative Binding Index (RBI) value, I or II ? Give the label under which the chosen entry appears.
Reply: II
(II: 29 a.u., I: −10 a.u.)

I: CN(C)c1cccc2c(S(=O)(=O)N[C@@H](CCC(N)=O)C(=O)N[C@@H](Cc3ccccc3)C(=O)N[C@@H](CCCNC(=N)N)C(N)=O)cccc12 [Dansyl-QFR-amide]
II: CN(C)c1cccc2c(S(=O)(=O)N[C@@H](CCCNC(=N)N)C(=O)N[C@@H](CC(N)=O)C(=O)N[C@@H](CCCNC(=N)N)C(N)=O)cccc12 [Dansyl-RNR-amide] (Dansyl-Arg-Asn-Arg-NH2)
Task item: Of I and II , whose reported Relative Binding Index (RBI) is numerically smaller? Lab log: write the label of the selected item as the result.
Reply: II
(II: 8 a.u., I: 20 a.u.)
